Catalogue of TGI values
system: SF-268 CNS; experiment: NCI tumour cell line growth inhibition, 48 h

Solved entries:
Ask: // fetch TGI for CC(=O)NC1CONC1=O (stereo unspecified) ; system: SF-268 CNS
Reply: > 100 µM

Ask: // fetch TGI for Cc1ccc(C(=O)NCc2ccccc2)cc1N=NN(C)C ; system: SF-268 CNS
Reply: > 100 µM

Ask: // fetch TGI for CC(=O)NC1C(Sc2ncn(C3OC(CO)C(O)C(O)C3NC(C)=O)n2)OC(CO)C(O)C1O (stereo unspecified) ; system: SF-268 CNS
Reply: > 100 µM

Ask: // fetch TGI for C/C(=N\NC(=S)N1CCCC1)c1nc2ncccc2[nH]1 ; system: SF-268 CNS
Reply: > 100 µM

Ask: // fetch TGI for CC(Cl)CN1c2ccccc2Sc2ccc(Cl)cc21 (stereo unspecified) ; system: SF-268 CNS
Reply: > 10 µM

Shifting focus to the molecule that follows.
Ask: // fetch TGI for COC(=O)[C@@H](NC(=O)N(Cc1ccccc1)C[C@H](CC(C)C)NC(=O)[C@@H](NC(=O)OC(C)(C)C)C(C)C)C(C)C ; system: SF-268 CNS
Reply: > 100 µM

----------
tested on: MOLT-4 leukemia; test: NCI tumour cell line growth inhibition, 48 h
reported-property: TGI (µM)
API: value field is a number in µM; no unit string.

Ask: Give me measured TGI, please, for this compound: N#CC(C#N)=C1CCCOc2c1ccc1ccccc21
Reply: 51

Shifting focus to the compound that follows.
Ask: Give me measured TGI, please, for this compound: Cc1c(Cl)cccc1NC(=O)c1cccc([N+](=O)[O-])c1O
Reply: 46.7

----------
Catalogue of TGI values
test system: CAKI-1 renal; experiment: NCI tumour cell line growth inhibition, 48 h

Solved entries:
Ask: // fetch TGI for O=C1/C(=C/N2N=C(c3ccc4ccccc4c3)CC2c2ccccc2O)SC(=S)N1c1cccnc1 (stereo not drawn) ; system: CAKI-1 renal
Reply: > 100 µM

Ask: // fetch TGI for Nc1ccc(C2=N/C(=C\c3cccc(N)c3)C(=O)O2)cc1 ; system: CAKI-1 renal
Reply: > 100 µM

Shifting focus to the compound that follows.
Ask: // fetch TGI for O=c1cc(CF)[nH]c(=S)[nH]1 ; system: CAKI-1 renal
Reply: > 100 µM

----------
test system: UACC-62 melanoma; experiment: NCI tumour cell line growth inhibition, 48 h
reported-property: TGI

Ask: Give me measured TGI, please, for this molecule: Cc1ccc(C(=O)NCc2ccccc2)cc1N=NN(C)C
Reply: > 100 µM

----------
tested on: OVCAR-3 ovarian; assay: NCI tumour cell line growth inhibition, 48 h
reported-property: TGI

Ask: Give me measured TGI, please, for this molecule: O=C1/C(=C/N2N=C(c3ccc4ccccc4c3)CC2c2ccccc2O)SC(=S)N1c1cccnc1 (centres undefined)
Reply: 38.5 µM

New cases:
Ask: Give me measured TGI, please, for this molecule: CC1=NC(C)(COC(=O)C2(C)NC(C)(CO)CO2)COC1=O (centres undefined)
Reply: > 100 µM

Ask: Give me measured TGI, please, for this molecule: Cc1ccc2c(c1-c1ccccc1)C(=O)OC2
Reply: > 100 µM

Ask: Give me measured TGI, please, for this molecule: C=CCn1c(SCC(=O)Nc2ccc(C(=O)/C=C/c3cc(OC)c(OC)c(OC)c3)cc2)nnc1-c1ccc(OC)cc1
Reply: 1.02 µM

Ask: Give me measured TGI, please, for this molecule: O=C1CC2CCN(C(=O)c3ccccc3)CC2CCN1 (centres undefined)
Reply: > 100 µM

Ask: Give me measured TGI, please, for this molecule: COc1ccc2nc(-c3ccccc3)c(=O)[nH]c2c1
Reply: > 100 µM

Ask: Give me measured TGI, please, for this molecule: N#CC(C#N)=C1CCCOc2c1ccc1ccccc21
Reply: > 100 µM

Ask: Give me measured TGI, please, for this molecule: OC(C/C=N/N=C/CC(O)(C(F)(F)Cl)C(F)(F)Cl)(C(F)(F)Cl)C(F)(F)Cl
Reply: > 10 µM

Ask: Give me measured TGI, please, for this molecule: O=C(N/N=C/c1ccc(O)cc1O)c1cccnc1
Reply: 29.4 µM

----------
Catalogue of TGI values
system: MCF7 breast; assay: NCI tumour cell line growth inhibition, 48 h

Ask: Give me measured TGI, please, for this molecule: CCC(=O)OCN(C)c1nc(N(C)COC(=O)CC)nc(N(C)COC(=O)CC)n1
Reply: > 100 µM

Shifting focus to the molecule that follows.
Ask: Give me measured TGI, please, for this molecule: COc1cc2c3c(n(CCCN(CCO)CCO)c(=O)c2cc1OC)-c1cc2c(cc1C3=O)OCO2
Reply: > 24.7 µM

----------
system: A549 NSCLC; test: NCI tumour cell line growth inhibition, 48 h
Catalogue of TGI values

Ask: Give me measured TGI, please, for this molecule: O=C(Nc1ccc(Cl)cc1)Nc1nccs1
Reply: > 100 µM

Ask: Give me measured TGI, please, for this molecule: CCOC(=O)CCC1(CCC(=O)OCC)CCCCCCCCC(CCC(=O)OCC)(CCC(=O)OCC)C(=O)C1=O
Reply: > 100 µM

Ask: Give me measured TGI, please, for this molecule: CC1(C)OP(=O)(O)C=C1Sc1ccc([N+](=O)[O-])cc1[N+](=O)[O-]
Reply: > 100 µM

Ask: Give me measured TGI, please, for this molecule: COC(=O)[C@]12CC[C@@H](C)[C@H](C)[C@@H]1C1=CC[C@@H]3[C@@]4(C)C(C=O)=C[C@@](C)(COC(=O)c5ccco5)[C@@H]4[C@H](O)C[C@@]3(C)[C@]1(C)CC2
Reply: 16.2 µM

Ask: Give me measured TGI, please, for this molecule: O=c1cc(CF)[nH]c(=S)[nH]1
Reply: > 100 µM

Ask: Give me measured TGI, please, for this molecule: CC(=O)OCCOCNC(=S)N/N=C/c1ccc([N+](=O)[O-])s1
Reply: > 100 µM

Shifting focus to the molecule that follows.
Ask: Give me measured TGI, please, for this molecule: CCOC(=O)CCC(NC(=O)c1ccc(NCc2ccc3nc(-c4ccccc4)c(Cl)nc3c2)cc1)C(=O)OCC (stereo not drawn)
Reply: > 100 µM

----------
tested on: MOLT-4 leukemia; experiment: NCI tumour cell line growth inhibition, 48 h
Catalogue of TGI values

Ask: Give me measured TGI, please, for this molecule: COc1ccc(/C(Cl)=C(\C#N)c2ccc(OC)c(OC)c2)cc1OC
Reply: > 100 µM

Ask: Give me measured TGI, please, for this molecule: C=CCn1c(SCC(=O)Nc2ccc(C(=O)/C=C/c3cc(OC)c(OC)c(OC)c3)cc2)nnc1-c1ccc(OC)cc1
Reply: > 100 µM

Shifting focus to the molecule that follows.
Ask: Give me measured TGI, please, for this molecule: COc1cc2c(cc1O)NC(=O)[C@@H]1CCCN1C2=O
Reply: > 100 µM

----------
Catalogue of TGI values
test system: UACC-62 melanoma; experiment: NCI tumour cell line growth inhibition, 48 h

Solved entries:
Ask: Give me measured TGI, please, for this compound: O=C(NNc1cnccn1)c1nc2cc(F)ccc2n2cccc12
Reply: > 100 µM

Ask: Give me measured TGI, please, for this compound: NC(N)=N/N=C(\N=Nc1ccccc1)c1ccc(Cl)cc1
Reply: 4.35 µM

New cases:
Ask: Give me measured TGI, please, for this compound: Cc1c2ccc3ccccc3c2c[n+]2ccccc12
Reply: 33.9 µM

Ask: Give me measured TGI, please, for this compound: COC(=O)C1=C(OC)[C@H]2C#C/C=C\C#C[C@@H]3Nc4c(cc(O)c5c4C(=O)c4ccccc4C5=O)[C@]24O[C@@]34[C@H]1C
Reply: < 0.01 µM

Ask: Give me measured TGI, please, for this compound: Nc1ccc(C2=N/C(=C\c3cccc(N)c3)C(=O)O2)cc1
Reply: > 100 µM

Ask: Give me measured TGI, please, for this compound: C=C1C(O)C2C(=C(C)C13CC3)C(=O)C(C)(C)C2OC (configuration not stated)
Reply: > 100 µM

Ask: Give me measured TGI, please, for this compound: CCOC(=O)c1sc(NC(=O)COc2cccc(/C=C3\CCc4cc(OC)ccc4C3=O)c2)nc1C
Reply: > 100 µM

Ask: Give me measured TGI, please, for this compound: CC(=O)c1c(N=[N+]=[N-])c2cccc3c2n(c1=O)CCC3
Reply: 35.1 µM

Ask: Give me measured TGI, please, for this compound: Nc1c(C(=O)Nc2ccccc2Cl)sc2nc3c(cc12)C(=O)CCC3
Reply: > 100 µM

Ask: Give me measured TGI, please, for this compound: O=P1(Cc2ccccc2)N(Cc2ccccc2)[C@@H]2CCCC[C@H]2N1Cc1ccccc1
Reply: 20.6 µM

Ask: Give me measured TGI, please, for this compound: CC1=NC(C)(COC(=O)C2(C)NC(C)(CO)CO2)COC1=O (configuration not stated)
Reply: > 100 µM

Ask: Give me measured TGI, please, for this compound: CC1(C)N=C(N)N=C(N)N1c1cccc(OCCOc2cccc([N+](=O)[O-])c2)c1
Reply: > 100 µM
